# experimental_target: T1, human LAG-3 protein with hFc tag (hLAG-3-hFc protein) (human, UniProt P18627 23-450)
# T1 construct: also called immunogen 1; LAG-3 extracellular domain protein; not shown: human IgG Fc fragment (hFc) of the pCpC vector
# T1 sequence: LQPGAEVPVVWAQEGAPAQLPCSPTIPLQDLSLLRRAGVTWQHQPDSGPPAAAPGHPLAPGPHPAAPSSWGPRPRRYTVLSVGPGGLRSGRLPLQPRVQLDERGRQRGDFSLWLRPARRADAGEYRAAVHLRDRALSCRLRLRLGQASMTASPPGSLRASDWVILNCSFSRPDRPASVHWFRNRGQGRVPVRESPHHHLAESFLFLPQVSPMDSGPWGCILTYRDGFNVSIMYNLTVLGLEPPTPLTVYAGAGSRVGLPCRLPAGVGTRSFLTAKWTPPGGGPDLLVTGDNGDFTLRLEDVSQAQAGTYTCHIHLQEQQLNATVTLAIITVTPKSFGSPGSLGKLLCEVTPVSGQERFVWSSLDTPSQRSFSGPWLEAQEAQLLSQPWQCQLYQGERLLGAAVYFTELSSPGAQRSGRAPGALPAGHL
# method_description: ELISA, hLAG-3-hFc coated; 0.0001 nM
Listed next: entries and their corresponding OD450.
readout_kind: OD450 (OD450)

• 556F6B8 (LAG-3 mouse-human chimeric antibody) (antibody, V domains shown, also called 556F8B8) VH: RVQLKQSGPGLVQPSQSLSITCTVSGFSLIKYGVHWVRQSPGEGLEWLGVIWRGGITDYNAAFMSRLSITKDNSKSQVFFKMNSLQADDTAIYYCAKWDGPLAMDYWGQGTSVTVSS VL: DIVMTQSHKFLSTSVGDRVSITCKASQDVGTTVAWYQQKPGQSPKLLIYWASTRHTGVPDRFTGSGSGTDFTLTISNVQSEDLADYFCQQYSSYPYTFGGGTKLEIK = 0.13
• 105F1E10 (LAG-3 mouse-human chimeric antibody) (antibody, V domains shown) VH: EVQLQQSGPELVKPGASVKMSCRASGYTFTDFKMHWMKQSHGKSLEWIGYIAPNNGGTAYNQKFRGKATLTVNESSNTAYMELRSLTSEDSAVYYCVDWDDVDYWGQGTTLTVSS VL: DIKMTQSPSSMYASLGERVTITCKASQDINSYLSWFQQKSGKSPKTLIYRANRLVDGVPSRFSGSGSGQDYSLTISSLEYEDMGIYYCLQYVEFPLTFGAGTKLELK = 0.13
• 409D4E10 (LAG-3 mouse-human chimeric antibody) (antibody, V domains shown) VH: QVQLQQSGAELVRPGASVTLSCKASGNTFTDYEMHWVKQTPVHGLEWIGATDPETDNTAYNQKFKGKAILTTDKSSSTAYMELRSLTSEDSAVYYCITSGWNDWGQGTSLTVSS VL: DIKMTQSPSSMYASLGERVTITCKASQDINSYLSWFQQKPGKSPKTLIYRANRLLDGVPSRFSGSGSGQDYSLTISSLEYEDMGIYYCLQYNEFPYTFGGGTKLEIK = 0.13
• 409B11E12 (LAG-3 mouse-human chimeric antibody) (antibody, V domains shown) VH: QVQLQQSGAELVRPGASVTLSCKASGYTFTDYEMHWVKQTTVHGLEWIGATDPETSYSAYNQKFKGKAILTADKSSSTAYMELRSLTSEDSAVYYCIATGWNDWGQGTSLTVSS VL: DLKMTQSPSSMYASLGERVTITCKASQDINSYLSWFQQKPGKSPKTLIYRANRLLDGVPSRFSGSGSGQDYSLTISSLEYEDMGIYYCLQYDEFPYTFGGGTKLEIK = 0.12
• 405B8H3 (LAG-3 mouse-human chimeric antibody) (antibody, V domains shown, also called mouse-human chimeric antibody 405B8H3) VH: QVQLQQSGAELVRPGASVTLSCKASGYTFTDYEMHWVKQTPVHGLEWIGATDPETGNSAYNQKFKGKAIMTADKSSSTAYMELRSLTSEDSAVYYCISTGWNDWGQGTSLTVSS VL: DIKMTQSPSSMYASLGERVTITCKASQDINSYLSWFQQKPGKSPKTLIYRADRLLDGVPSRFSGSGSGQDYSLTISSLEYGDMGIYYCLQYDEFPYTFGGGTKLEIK = 0.11

From: patent US20210155689A1
